Provenance of the data: PubChem BioAssay

This section presents compounds with their documented composite z-score values.
assay: binders of probe aHhip on microarray, primary screen, stem cell growth factor project, biochemical, small-molecule microarray, fluorescence 635/667 (AID 1087); conditions: higher = more signal;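 also: score merges spot fluorescence at 667nm with spot signal to noise ratio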

compound: CN1C(=O)C2C=CC(C(O)c3ccc(I)cc3)N(N3CCCCC3)C2C1=O (centres undefined)
composite z-score: -0.0346
//
compound: CCOC(=O)C[C@H]1[C@H](OC(=O)Cc2ccc3c(c2)OCO3)[C@@H](NC(=O)c2ccc(-c3ccccc3)cc2)c2cc(OCCCO)ccc2N1C(=O)Cc1ccc(OC)cc1
composite z-score: -0.415
//
compound: CN(C)C(=O)[C@]1(Cc2ccccc2N=[N+]=[N-])N=C(c2ccc(OCCCO)cc2)O[C@@H]1c1ccccc1
composite z-score: -0.374
//
compound: CCOC(=O)C1=CCC(c2ccc(C)cc2)N(S(=O)(=O)c2ccc(C)cc2)C1 (centres undefined)
composite z-score: -0.0994
//
compound: CCOC(=O)C[C@H]1[C@H](OC(=O)c2cc3ccccc3oc2=O)[C@@H](NC(=O)C2CCCCC2)c2cc(OCCCO)ccc2N1C(=O)c1ccccc1
composite z-score: -0.0618
//
compound: CN(C)CCCNC(=O)[C@@]1(C)c2ccccc2C(=O)N(Cc2cc(F)cc(C(F)(F)F)c2)[C@H]1c1ccc(CO)cc1
composite z-score: -0.132
//
compound: CN(C)CCCNC(=O)[C@@]1(c2ccc([N+](=O)[O-])cc2)CC(=O)N(C2CCCCC2)[C@@H]1c1ccc(CO)cc1I
composite z-score: -0.266
//
compound: COCCOC(=O)N1C(=O)[C@@]2(c3ccccc31)[C@H](c1ccc(O)cc1)N1[C@H](c3ccccc3)[C@H](c3ccccc3)OC(=O)[C@H]1[C@@H]2C(=O)NC[C@H](O)c1ccccc1
composite z-score: 0.0093
//
compound: COCCOC(=O)N1C(=O)[C@@]2(c3cc(C#CC4=CCCCC4)ccc31)[C@H](C(=O)Nc1nc3ccccc3s1)[C@H]1C(=O)O[C@H](c3ccccc3)[C@H](c3ccccc3)N1[C@@H]2c1ccc(OCCO)cc1
composite z-score: -0.0994
//
compound: COc1ccc(C(=O)Nc2ccc(CN3C(=O)[C@@]4(O[C@@H](CCn5cc([C@H](O)c6ccccc6)nn5)[C@H]([Si](C)(C)c5ccc(OC)cc5)[C@H]4C)c4ccccc43)cc2)cc1
composite z-score: -0.0391
//
compound: CCCC=C(CCC)[C@@H](NS(=O)(=O)c1cccs1)c1ccc(C(=O)OC)cc1
composite z-score: 0.398
//
compound: CC[C@@H]1C=C(C(=O)O)[C@H](c2ccco2)N1S(=O)(=O)c1ccc(C)cc1
composite z-score: -0.0391
//
compound: CCCCCN1CC=CC23O[C@@H]4/C=C\CCCOC(=O)C4[C@H]2C(=O)N(CCCO)[C@@H]3C1=O (some centres undefined)
composite z-score: -0.11
//
compound: O=C1c2ccccc2[C@@]2(Cc3ccccc3N(CC(F)(F)F)C2=O)[C@H](c2ccc(CO)cc2)N1Cc1ccccc1Cl
composite z-score: -0.226

----------
tested on: Sam68 (KHDRBS1); experiment: Sam68 small-molecule binders, primary screen, biochemical, small-molecule microarray, 635 nm fluorescence (AID 1125); details: small-molecule microarray binding, higher = more signal;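 also: score merges 667 nm channel intensity with signal to noise over triplicate slides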

molecule: CC1CC/C=C\[C@H]2OC34C=CCN(Cn5nnc6ccccc65)C(=O)[C@H]3N(C(CO)C(C)C)C(=O)[C@@H]4C2C(=O)O1 (stereo partly drawn)
tgt: Sam68 (KHDRBS1)
composite z-score: 0.272
//
molecule: COc1ccc(C(=O)O[C@H]2CC[C@]3(C)C4=C(CCC3C2(C)C)[C@]2(C)CC[C@H]([C@H](C)CCCC(C)C)[C@@]2(C)CC4)cc1 (stereo partly drawn)
tgt: Sam68 (KHDRBS1)
composite z-score: 0.154
//
molecule: COCCOC(=O)N1C(=O)[C@@]2(c3ccccc31)[C@H](c1ccc(O)cc1)N1[C@H](c3ccccc3)[C@H](c3ccccc3)OC(=O)[C@H]1[C@@H]2C(=O)NC[C@H](O)c1ccccc1
tgt: Sam68 (KHDRBS1)
composite z-score: 1.07
//
molecule: COCCOC(=O)N1C(=O)[C@@]2(c3cc(C#CC4=CCCCC4)ccc31)[C@H](C(=O)Nc1nc3ccccc3s1)[C@H]1C(=O)O[C@H](c3ccccc3)[C@H](c3ccccc3)N1[C@@H]2c1ccc(OCCO)cc1
tgt: Sam68 (KHDRBS1)
composite z-score: 1.16
//
molecule: COc1ccc([C@H]2C[C@H]3C(Br)=C[C@@H]2C(=O)[C@]32CO2)cc1
tgt: Sam68 (KHDRBS1)
composite z-score: -0.99
//
molecule: C=C(CCCC)C(=O)CC[C@H](OC(C)=O)c1cccc(OCCO)c1
tgt: Sam68 (KHDRBS1)
composite z-score: -0.11
//
molecule: CCC(CC)C(O)C1C=CC2C(=O)N(C)C(=O)C2N1Nc1ccccc1 (stereo not drawn)
tgt: Sam68 (KHDRBS1)
composite z-score: 1.07
//
molecule: O=C1O[C@H](c2ccccc2)[C@H](c2ccccc2)N2[C@H]1[C@@H](C(=O)N1CCN(c3ncccn3)CC1)[C@]1(C(=O)Nc3ccc(C#CC4=CCCCC4)cc31)[C@H]2c1ccc(O)cc1
tgt: Sam68 (KHDRBS1)
composite z-score: 1.3
//
molecule: C=CCOC(=O)[C@H]1[C@@H]2C(=O)O[C@@H](c3ccccc3)[C@@H](c3ccccc3)N2[C@@H](c2ccc(OCCOC(=O)[C@@H]3C[C@@H]4C(=O)N[C@@H](CCCCN(C)C)C(=O)N4[C@@H]3c3ccc(O)cc3)cc2)[C@]12C(=O)Nc1ccc(I)cc12
tgt: Sam68 (KHDRBS1)
composite z-score: 1.3
//
molecule: COCC(=C=CC[C@H](O)c1ccccc1OCCO)C[C@H](O)c1cc(Cl)cc(Cl)c1O
tgt: Sam68 (KHDRBS1)
composite z-score: 1.24
//
molecule: [N-]=[N+]=NCc1ccccc1[C@@H]1OC(c2ccc(OCCCO)cc2)=N[C@]1(CCS(=O)(=O)c1ccccc1)C(=O)NCCN1CCOCC1
tgt: Sam68 (KHDRBS1)
composite z-score: 1.3
//
molecule: COc1ccc(C(O)C2C=CC3C(=O)NC(=O)C3N2Nc2ccccn2)c2ccccc12 (stereo not drawn)
tgt: Sam68 (KHDRBS1)
composite z-score: -0.328
//
molecule: COC(=O)[C@@]1(Cc2ccc(OC)cc2)[C@H]2c3cc(C(=O)N(C)C)n(CCN4CNCC4=O)c3C[C@H]2CN1C(=O)c1ccccc1
tgt: Sam68 (KHDRBS1)
composite z-score: -0.668
//
molecule: C=C(COC)/C(=C/C[C@@H](OC(C)=O)c1ccc(CO)o1)c1cnc2ccccc2c1
tgt: Sam68 (KHDRBS1)
composite z-score: 1.29
//
molecule: CCCC[C@@H]1C[C@H]1[C@@H](NC(=O)c1ccco1)c1ccc(Cl)cc1
tgt: Sam68 (KHDRBS1)
composite z-score: 1.33
//
molecule: CCCC[C@@H]1C[C@H]1[C@@H](NC(=O)c1ccco1)c1ccc(C(=O)OC)cc1
tgt: Sam68 (KHDRBS1)
composite z-score: 0.0166
//
molecule: CCOC(=O)C[C@H]1[C@H](OC(=O)c2cc3ccccc3oc2=O)[C@@H](NC(=O)C2CCCCC2)c2cc(OCCCO)ccc2N1C(=O)c1ccccc1
tgt: Sam68 (KHDRBS1)
composite z-score: 1.04
//
molecule: CCOC(=O)C[C@H]1[C@H](OC(=O)Cc2ccc3c(c2)OCO3)[C@@H](NC(=O)c2ccc3ccccc3c2)c2cc(OCCCO)ccc2N1C(=O)c1ccccc1
tgt: Sam68 (KHDRBS1)
composite z-score: 1.09
//
molecule: C[C@@H]1ON(c2cccc(C(=O)OC(C)(C)C)c2)[C@H](c2ccc(Br)cc2)[C@H]1C(=O)N1C(=O)OC[C@H]1Cc1ccccc1
tgt: Sam68 (KHDRBS1)
composite z-score: 1.21
//
molecule: CC(C)C(=C=CC[C@@H](O)c1ccccc1OCCO)CCO
tgt: Sam68 (KHDRBS1)
composite z-score: 0.615
//
molecule: CN1C(=O)C2C=CC(C(O)c3ccccc3)N(Nc3ccccc3)C2C1=O (stereo not drawn)
tgt: Sam68 (KHDRBS1)
composite z-score: -0.0508
//
molecule: C=CC[C@]1(C(=O)N2CCCCC2)N=C(c2ccc(OCCCO)cc2)O[C@H]1c1ccccc1
tgt: Sam68 (KHDRBS1)
composite z-score: 1.31
//
molecule: C=CCC(OC(C)=O)[C@@H]1[C@@H](N(Cc2ccc(-c3cccc(C(F)(F)F)c3)o2)C(=O)Cc2ccc(F)cc2)c2cc(OCCCO)ccc2N1C(=O)Cc1ccc(OC)cc1 (stereo partly drawn)
tgt: Sam68 (KHDRBS1)
composite z-score: -3.75
//
molecule: O=C1OCCC/C=C\[C@H]2OC34C=CCN(Cn5nnc6ccccc65)C(=O)[C@H]3N(CCCCCCO)C(=O)[C@@H]4C12 (stereo partly drawn)
tgt: Sam68 (KHDRBS1)
composite z-score: 0.839
//
molecule: C=C(/C(=C/C[C@@H](OC(C)=O)c1ccc(OCCO)cc1)c1cnc2ccccc2c1)C(C)C
tgt: Sam68 (KHDRBS1)
composite z-score: 0.713
//
molecule: COCCOC(=O)N1C(=O)[C@@]2(c3cc(C#CC4(O)CCCCCC4)ccc31)[C@H](c1ccc(O)cc1)N1[C@H](c3ccccc3)[C@H](c3ccccc3)OC(=O)[C@H]1[C@@H]2C(=O)Nc1nc2ccccc2s1
tgt: Sam68 (KHDRBS1)
composite z-score: 1.32
//
molecule: COc1cc2c(cc1OC)CN(C(=O)[C@@H]1[C@H]3C(=O)O[C@H](c4ccccc4)[C@H](c4ccccc4)N3[C@H](c3ccc(O)cc3)[C@@]13C(=O)Nc1ccc(C#CC4(O)CCCCCC4)cc13)CC2
tgt: Sam68 (KHDRBS1)
composite z-score: 1.29
//
molecule: COc1ccc([C@H]2OC[C@@H]3CC4(CC=CC4)C(=O)N32)cc1
tgt: Sam68 (KHDRBS1)
composite z-score: 0.964
